Values were extracted from the supplement of paper PMC10567573.

B1: BTBD1 (parent)
chain: IVGFGLYGSIHGPTDYQVNIQIIE

# Variants of: B1
# Test Description: protein stability index of a GFP-peptide fusion (GPS, HEK-293T) (PSI 1-6); higher = more stable;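 note: lentivirally expressed fusions sorted by FACS into six bins by GFP to DsRed ratio, PSI derived from sequencing read proportions per bin multiplied by bin number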
# Condition Info: c terminus: a fixed tail appended
Endpoint Label: protein stability index
Respond using a number only.

Reference set, count: 10
> print(dat)
                         seq.string  meas.value
 1  IVGFGLYGSIHGPTAYQVNIQIIE [D15A]        2.57
 2  IVGFGLYGSIHGPTDYQVNIGIIE [Q21G]        2.44
 3  IVGFGLYGSIHGPTDYQVNIQIEE [I23E]        2.23
 4   IVVFGLYGSIHGPTDYQVNIQIIE [G3V]        3.82
 5   IVGFGLYMSIHGPTDYQVNIQIIE [G8M]        2.04
 6   IVGFKLYGSIHGPTDYQVNIQIIE [G5K]        2.34
 7   KVGFGLYGSIHGPTDYQVNIQIIE [I1K]        2.14
 8  IVGFGLYGSIHGPTDYQQNIQIIE [V18Q]        2.38
 9   EVGFGLYGSIHGPTDYQVNIQIIE [I1E]        3.29
10   IVGPGLYGSIHGPTDYQVNIQIIE [F4P]        1.87

// next item, protein stability index requested
Specify measured protein stability index for IVGFGLYGSIHGDTDYQVNIQIIE [P13D] .
1.76
